MEASURED ON: E. coli RNase P holoenzyme (M1 P RNA + rnpA protein)
Sequence: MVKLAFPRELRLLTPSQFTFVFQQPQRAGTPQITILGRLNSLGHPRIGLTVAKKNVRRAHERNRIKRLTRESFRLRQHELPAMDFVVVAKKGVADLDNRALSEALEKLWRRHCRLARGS
ASSAY PROTOCOL: relative kcat/Km (krel) vs genomic leader AAAGAU (relative (reference leader = 1)); higher = faster RNase P cleavage
CONDITION CONTEXT: fraction of substrate reacted: ~26-29% (28.66% repeat 1, 26.4% repeat 2)
The full ranking holds about 4,100 sequences; the median of “relative kcat/Km (krel) vs genomic leader AAAGAU” is about 1.7, and the highest 2% start at about 6.5. This excerpt belongs to a sample that is enriched for the highest values.
Returns 1 if the recorded relative kcat/Km is greater than or equal to 3, and 0 otherwise.

Sample answers from the record:
SEQ STRING: TCTCAT
CATEGORY LABEL: 1

SEQ STRING: AGTTAC
CATEGORY LABEL: 1

SEQ STRING: GTCCTC
CATEGORY LABEL: 1

SEQ STRING: TTCCTT
CATEGORY LABEL: 1

SEQ STRING: CAAATA
CATEGORY LABEL: 0

SEQ STRING: TTAGGG
CATEGORY LABEL: 0

SEQ STRING: GATCGA
CATEGORY LABEL: 1

SEQ STRING: TCGCAA
CATEGORY LABEL: 1

SEQ STRING: CTTCAA
CATEGORY LABEL: 1

SEQ STRING: ATGTCT
CATEGORY LABEL: 0

Given the entry ATTTAC , answer whether its relative kcat/Km meets or surpasses 3.
1

Reported relative kcat/Km reaches at least 3 for ATTCAT ?
1

###

MEASURED ON: E. coli RNase P holoenzyme (M1 P RNA + rnpA protein)
Sequence: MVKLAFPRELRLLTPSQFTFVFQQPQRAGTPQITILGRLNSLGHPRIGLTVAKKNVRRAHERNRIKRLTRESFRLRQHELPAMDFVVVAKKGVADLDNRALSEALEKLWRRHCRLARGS
ASSAY PROTOCOL: relative kcat/Km (krel) vs genomic leader AAAGAU (relative (reference leader = 1)); higher = faster RNase P cleavage
CONDITION CONTEXT: fraction of substrate reacted: ~26-29% (28.66% repeat 1, 26.4% repeat 2)
Over roughly 4,100 sequences, “relative kcat/Km (krel) vs genomic leader AAAGAU” has its median near 1.7; the highest 2% begin near 6.5. Shown is part of a subset that was picked to be rich in the highest values.
MEASURED PARAMETER: relative kcat/Km
Reply: number alone, nothing else.

SEQ STRING: ATTTTT
MEASURED ON: E. coli RNase P holoenzyme (M1 P RNA + rnpA protein)
relative kcat/Km: 3.89
//
SEQ STRING: CTCCCC
MEASURED ON: E. coli RNase P holoenzyme (M1 P RNA + rnpA protein)
relative kcat/Km: 4.73
//
SEQ STRING: ACCGAC
MEASURED ON: E. coli RNase P holoenzyme (M1 P RNA + rnpA protein)
relative kcat/Km: 4.58
//
SEQ STRING: GTCTAC
MEASURED ON: E. coli RNase P holoenzyme (M1 P RNA + rnpA protein)
relative kcat/Km: 10.1
//
SEQ STRING: CCCGAA
MEASURED ON: E. coli RNase P holoenzyme (M1 P RNA + rnpA protein)
relative kcat/Km: 6.76

// below: relative kcat/Km requested for another sequence
# input sequence: GGCTAC ; wanted: its relative kcat/Km
2.81
